B1: GNB5 (parent)
chain: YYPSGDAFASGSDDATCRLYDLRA

Variants of: B1
Experiment: protein stability index of a GFP-peptide fusion (GPS, HEK-293T) (PSI 1-6); higher = more stable;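 note: lentivirally expressed fusions sorted by FACS into six bins by GFP to DsRed ratio, PSI derived from sequencing read proportions per bin multiplied by bin number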
Details: c terminus: a fixed tail appended
This listing pairs variants with measured protein stability index.
readout-type: protein stability index

Y20S: 2.87
L22E: 3.34
P3A: 2.55
L22M: 2.49
S4Y: 2.82
F8G: 4.09
L22S: 3.08
D14E: 2.55
T16F: 2.32
R18I: 2.42
A15W: 2.56
D6V: 2.35
Y1I: 3.52
G5K: 2.89
S4I: 2.8
P3D: 3.46
L19K: 2.77
A7M: 2.47
S12W: 2.74
S10R: 2.1
S10V: 2.18
D14K: 1.93
A24E: 2.27
P3W: 2.32
L22Y: 2.68
Y20P: 3.32
A9W: 1.72
Y1S: 3.99
A15M: 2.36
L19P: 2.61
L19N: 2.72
D14H: 2.2
Y20D: 3.13
G5N: 3.88
G11M: 1.66
D6H: 2.26
A9R: 2.17
A24M: 2.85
D14I: 2.65
R23Y: 2.01
F8E: 4.5
R18Q: 2.85
A9S: 2.56
P3I: 2
R23I: 2.37
G5V: 3.17
